# tested_target: T1, cynomolgus (Macaca fascicularis) ST2L extracellular domain with C-terminal His6 tag (Macaca fascicularis (cynomolgus), UniProt Q01638 19-321 (human entry))
# T1 construct: also called cyno ST2L-ECD; cynoST2L-ECD
# T1 chain: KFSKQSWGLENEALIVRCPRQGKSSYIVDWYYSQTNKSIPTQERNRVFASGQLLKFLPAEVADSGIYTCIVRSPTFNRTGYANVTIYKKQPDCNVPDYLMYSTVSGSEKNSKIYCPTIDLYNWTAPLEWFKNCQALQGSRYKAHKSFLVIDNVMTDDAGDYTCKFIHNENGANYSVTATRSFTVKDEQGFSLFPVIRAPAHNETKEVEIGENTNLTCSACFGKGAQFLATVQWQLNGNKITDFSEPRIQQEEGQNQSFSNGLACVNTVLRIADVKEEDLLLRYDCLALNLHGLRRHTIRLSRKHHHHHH
# test_name: SPR, mAb captured, ST2L-ECD in solution
Hi there, I'd appreciate the recorded Kd for every entry that follows.

STLM207 (antibody, V domains shown, frameworks VH3-23 / Vk-L6) VH: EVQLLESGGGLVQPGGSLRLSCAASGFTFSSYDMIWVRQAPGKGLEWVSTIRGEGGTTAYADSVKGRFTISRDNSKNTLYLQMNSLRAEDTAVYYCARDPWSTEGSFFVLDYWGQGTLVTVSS VL: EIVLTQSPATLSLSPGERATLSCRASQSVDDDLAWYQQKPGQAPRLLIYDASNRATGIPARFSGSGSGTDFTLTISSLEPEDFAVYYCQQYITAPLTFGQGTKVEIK :: 0.021 nM

Each binder below has a reported value. Please supply its Kd.
1. STLM220 (antibody, V domains shown, frameworks VH3-23 / Vk-L6) VH: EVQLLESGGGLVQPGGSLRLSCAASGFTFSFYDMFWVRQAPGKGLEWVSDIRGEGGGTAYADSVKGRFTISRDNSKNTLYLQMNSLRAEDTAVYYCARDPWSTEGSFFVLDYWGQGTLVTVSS VL: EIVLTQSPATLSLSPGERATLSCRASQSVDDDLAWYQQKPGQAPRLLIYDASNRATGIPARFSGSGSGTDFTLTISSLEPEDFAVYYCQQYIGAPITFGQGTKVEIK
2. STLM229 (antibody, V domains shown, VH STLH201 + VL STLL275) VH: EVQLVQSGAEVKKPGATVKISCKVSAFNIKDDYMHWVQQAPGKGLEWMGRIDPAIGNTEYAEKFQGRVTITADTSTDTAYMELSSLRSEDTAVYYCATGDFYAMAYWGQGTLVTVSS VL: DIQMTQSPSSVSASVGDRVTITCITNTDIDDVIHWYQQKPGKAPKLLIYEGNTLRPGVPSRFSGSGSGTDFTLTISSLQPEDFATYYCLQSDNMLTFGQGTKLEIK

Response:
1: 0.009 nM; 2: 0.085 nM
